Measured values drawn from a melting point compilation (Tetko et al.; mined from patent text by program, amines drawn as free bases though some values may be those of a salt) for this set.

PROPERTY: melting point

Examples from the recorded data:
Looking for the measured melting point of O=C(O)Cc1ccc(Oc2ccc(Cl)cc2)cc1 , can you help?
98 to 100 °C

Looking for the measured melting point of O=C1N(Cc2ccc(NC3CCNC3)cc2)c2ccccc2C12COc1cc3c(cc12)OCO3 (centres undefined) , can you help?
118 to 121 °C

Looking for the measured melting point of O=c1c2c[nH]c3c(c-2nn1-c1ccccc1)COCC3 , can you help?
304 to 306 °C

Looking for the measured melting point of O=C(O)Cc1c(C(=O)c2cc3ccccc3cn2)[nH]c2ccc(Cl)cc12 , can you help?
239 to 240 °C

Looking for the measured melting point of Cc1ccc(-n2nc(C#N)cc2-c2ccc(S(C)(=O)=O)cc2)cc1Br , can you help?
179 to 180 °C

More entries:
Looking for the measured melting point of O=[N+]([O-])c1cc(C(c2ccc(Nc3ccccc3)c([N+](=O)[O-])c2)(C(F)(F)F)C(F)(F)F)ccc1Nc1ccccc1 , can you help?
165 to 166 °C

Looking for the measured melting point of O=C(O)c1cc2c(c([N+](=O)[O-])c1)OC(C(Cl)(Cl)Cl)OC2C(Cl)(Cl)Cl (centres undefined) , can you help?
211 to 212 °C

Looking for the measured melting point of COC(=O)c1ccc(C(=O)Nc2cc3c4c(c2)CCCC4(C)CCC3)cc1 , can you help?
217 to 218 °C

Looking for the measured melting point of N#CC1CC2(c3ccccc3)SC13c1ccccc1CCN3C2=O (centres undefined) , can you help?
225 to 226 °C
